Sourced from patent US20220202963A1

# tgt: MAGL (Homo sapiens, UniProt Q99685)
# Sequence (Q99685 1-303): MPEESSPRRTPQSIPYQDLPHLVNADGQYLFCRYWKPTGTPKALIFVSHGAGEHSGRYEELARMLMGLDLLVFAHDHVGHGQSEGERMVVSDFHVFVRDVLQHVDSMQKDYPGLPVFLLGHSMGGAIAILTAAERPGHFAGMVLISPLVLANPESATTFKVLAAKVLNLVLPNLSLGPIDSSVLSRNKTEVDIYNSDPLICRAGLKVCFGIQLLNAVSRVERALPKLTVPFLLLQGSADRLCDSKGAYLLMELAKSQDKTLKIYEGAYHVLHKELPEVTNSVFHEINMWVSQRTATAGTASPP
quantity-measured: IC50 (µM)

(a) Cc1ccc(/C(F)=C\C2CN(C(=O)N3CC[C@@H]4OCC(=O)N[C@@H]4C3)C2)cc1F [Example 12]
(b) O=C1CO[C@H]2CCN(C(=O)N3CC4(CC(Cc5c(F)cccc5F)C4)C3)C[C@H]2N1 [Example 6]
Given the listed records, identify the one among a and b with higher IC50. Reply briefly: the label of your chosen item.
a
(a: 0.04 µM, b: 0.0001 µM)
